# ASSAY: Clearance in rat hepatocytes assessed per million cells
# Type: ADME, cell-based, Hepatocyte
# MEASUREMENT_CONDITIONS: read-out: CLH
ENDPOINT_LABEL: hepatocyte CLint (µL/min/1e6 cells)
Answers are plain numbers, in µL/min/1e6 cells.

Name the reported hepatocyte CLint value associated with the molecule `COc1cc2ncnc(Oc3ccc(CC(=O)Nc4cnn(C(C)C)c4)cc3)c2cc1OC`
3.5

* * *

# ASSAY: Half life in dog at 2.7 mg/kg, po
# Type: ADME, organism-based, Canis lupus familiaris
# Parameters: dose 2.7 mg/kg, route oral
# MEASUREMENT_CONDITIONS: in vivo
ENDPOINT_LABEL: half-life (h)
Give bare numbers, in h.

What half-life value was documented for this compound, `COc1cc2ncnc(Oc3ccc(CC(=O)Nc4cnn(C(C)C)c4)cc3)c2cc1OC.O=P(O)(O)O` ?
4.3

* * *

# ASSAY: Clearance in rat
# Format: ADME, organism-based
# MEASUREMENT_CONDITIONS: in vivo
ENDPOINT_LABEL: clearance (mL/min/kg)
Answers are plain numbers, in mL/min/kg.

Need clearance of `COc1cccc(NC(=O)Cn2cc(Oc3ncnc4cc(OC)c(OCCN5CCCCC5)cc34)cn2)c1` , thanks.
75

* * *

# ASSAY: Clearance in dog at 3 mg/kg, iv
# Type: ADME, organism-based, Canis lupus familiaris
# Design: dose 3 mg/kg, route intravenous
# MEASUREMENT_CONDITIONS: in vivo
ENDPOINT_LABEL: clearance

Recorded clearance of `COc1cc2ncnc(Oc3ccc(CC(=O)Nc4cnn(C(C)C)c4)cc3)c2cc1OC.O=P(O)(O)O` , please.
1.7 mL/min/kg

* * *

# ASSAY: Fraction unbound in human serum
# Type: ADME, cell-free
ENDPOINT_LABEL: fraction unbound

I have this compound here, `COc1cc2ncnc(Oc3ccc(CC(=O)Nc4cnn(C(C)C)c4)cc3)c2cc1OC` , and I need its recorded fraction unbound.
0.033

* * *

# SYSTEM_UNDER_TEST: Vascular endothelial growth factor receptor 2 (Homo sapiens)
Consider the following compounds; for each one, report its pIC50.
Numbers only, as −log10 of the molar value.

# STRUCTURE_AS_SMILES, SYSTEM_UNDER_TEST, RECORDED_RESULT
records = [
    ("COc1cccc(NC(=O)NCc2ccc(Oc3ncnc4cc(OC)c(OC)cc34)cc2)c1", "Vascular endothelial growth factor receptor 2 (Homo sapiens)", 6.75),
    ("COc1cccc(NC(=O)Cn2cc(Oc3ncnc4cc(OCCN5CCCC5)c(OC)cc34)cn2)c1", "Vascular endothelial growth factor receptor 2 (Homo sapiens)", 8.15),
    ("COc1cccc(C(=O)NCc2ccc(Oc3ncnc4cc(OC)c(OC)cc34)cc2)c1", "Vascular endothelial growth factor receptor 2 (Homo sapiens)", 5.21),
    ("COc1cccc(NC(=O)Cn2cc(Oc3ccnc4cc(OC)c(C#N)cc34)cn2)c1", "Vascular endothelial growth factor receptor 2 (Homo sapiens)", 6.55),
]

Now take the following compound into account.
Could you tell me which pIC50 is on file for `COc1cccc(CC(=O)Nc2ccc(Oc3ncnc4cc(OC)c(OC)cc34)cc2)c1` ?
6.68

* * *

# SYSTEM_UNDER_TEST: Voltage-gated inwardly rectifying potassium channel KCNH2 (Homo sapiens)
# Sequence (Q12809 whole entry): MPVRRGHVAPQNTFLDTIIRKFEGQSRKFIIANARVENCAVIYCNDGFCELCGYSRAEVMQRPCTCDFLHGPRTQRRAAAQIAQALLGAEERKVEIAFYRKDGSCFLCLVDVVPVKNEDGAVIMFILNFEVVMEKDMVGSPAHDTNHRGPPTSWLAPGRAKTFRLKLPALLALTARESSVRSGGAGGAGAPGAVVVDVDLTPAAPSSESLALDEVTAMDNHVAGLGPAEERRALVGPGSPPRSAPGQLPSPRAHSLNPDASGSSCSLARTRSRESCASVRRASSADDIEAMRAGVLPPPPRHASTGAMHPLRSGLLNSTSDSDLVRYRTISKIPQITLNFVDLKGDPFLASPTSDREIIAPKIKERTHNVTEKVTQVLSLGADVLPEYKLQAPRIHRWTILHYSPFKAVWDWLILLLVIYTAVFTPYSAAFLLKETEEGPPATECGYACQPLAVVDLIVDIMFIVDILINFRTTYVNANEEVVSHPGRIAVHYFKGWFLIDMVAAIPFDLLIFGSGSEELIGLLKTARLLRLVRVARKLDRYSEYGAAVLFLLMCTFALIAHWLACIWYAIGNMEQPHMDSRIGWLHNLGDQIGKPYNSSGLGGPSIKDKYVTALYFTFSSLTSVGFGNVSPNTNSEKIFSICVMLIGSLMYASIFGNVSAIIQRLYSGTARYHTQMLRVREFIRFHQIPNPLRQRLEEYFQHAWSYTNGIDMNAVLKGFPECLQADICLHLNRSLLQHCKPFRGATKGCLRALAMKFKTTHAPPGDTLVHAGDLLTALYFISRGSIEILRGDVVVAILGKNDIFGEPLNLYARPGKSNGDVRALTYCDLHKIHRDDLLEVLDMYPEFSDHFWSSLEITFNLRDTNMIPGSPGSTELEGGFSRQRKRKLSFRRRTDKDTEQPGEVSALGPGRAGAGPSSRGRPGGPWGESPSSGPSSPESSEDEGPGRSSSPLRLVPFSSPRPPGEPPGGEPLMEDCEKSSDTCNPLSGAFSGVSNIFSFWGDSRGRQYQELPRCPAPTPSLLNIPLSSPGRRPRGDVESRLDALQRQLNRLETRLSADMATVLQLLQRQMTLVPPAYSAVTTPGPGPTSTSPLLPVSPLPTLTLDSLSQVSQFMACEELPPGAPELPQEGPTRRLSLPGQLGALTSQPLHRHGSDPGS
ENDPOINT_LABEL: pIC50
Give bare numbers, as −log10 of the molar value.

Dear colleague, I am looking for the recorded pIC50 of the following compound: `COc1cc2ncnc(Oc3ccc(CC(=O)Nc4cnn(C(C)C)c4)cc3)c2cc1OC`
3.86

* * *

# ASSAY: Terminal half life in dog at 3 mg/kg, iv
# Assay type: ADME, organism-based, Canis lupus familiaris
# Parameters: dose 3 mg/kg, route intravenous
# MEASUREMENT_CONDITIONS: in vivo, read-out: beta t1/2 (converted)
ENDPOINT_LABEL: half-life (h)
One number for each entry, in h.

Look up half-life for this compound: `COc1cc2ncnc(Oc3ccc(CC(=O)Nc4cnn(C(C)C)c4)cc3)c2cc1OC.O=P(O)(O)O`
4.7

* * *

Could you please report measured IC50 for the items listed next?
# SYSTEM_UNDER_TEST: Receptor-type tyrosine-protein kinase FLT3 (Homo sapiens, UniProt P36888)
# Sequence (P36888 whole entry): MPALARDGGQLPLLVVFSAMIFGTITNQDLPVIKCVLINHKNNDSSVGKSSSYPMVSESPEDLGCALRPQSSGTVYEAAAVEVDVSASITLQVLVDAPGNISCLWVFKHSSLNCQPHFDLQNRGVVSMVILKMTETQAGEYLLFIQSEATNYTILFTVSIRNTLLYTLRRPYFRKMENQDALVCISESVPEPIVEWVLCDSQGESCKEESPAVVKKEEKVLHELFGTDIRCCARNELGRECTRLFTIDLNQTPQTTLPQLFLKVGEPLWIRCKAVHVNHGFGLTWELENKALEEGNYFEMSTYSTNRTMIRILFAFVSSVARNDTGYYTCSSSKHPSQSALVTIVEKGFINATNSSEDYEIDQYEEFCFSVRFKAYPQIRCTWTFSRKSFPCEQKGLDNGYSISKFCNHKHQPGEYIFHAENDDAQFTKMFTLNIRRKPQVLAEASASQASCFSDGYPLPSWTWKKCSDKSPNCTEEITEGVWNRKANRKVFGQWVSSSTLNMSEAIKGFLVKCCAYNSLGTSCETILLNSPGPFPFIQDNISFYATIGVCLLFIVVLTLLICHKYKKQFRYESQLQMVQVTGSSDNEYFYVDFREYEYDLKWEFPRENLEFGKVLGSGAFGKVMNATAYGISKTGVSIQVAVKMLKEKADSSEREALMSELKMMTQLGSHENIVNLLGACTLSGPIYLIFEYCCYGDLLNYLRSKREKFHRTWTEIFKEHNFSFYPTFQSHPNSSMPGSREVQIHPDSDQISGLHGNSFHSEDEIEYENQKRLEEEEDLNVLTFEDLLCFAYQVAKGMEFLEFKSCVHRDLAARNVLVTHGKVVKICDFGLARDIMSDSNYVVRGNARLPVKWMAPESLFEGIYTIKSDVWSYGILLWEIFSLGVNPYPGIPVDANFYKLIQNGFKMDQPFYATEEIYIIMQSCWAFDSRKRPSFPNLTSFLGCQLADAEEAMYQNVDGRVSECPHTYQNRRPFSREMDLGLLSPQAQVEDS

# STRUCTURE_AS_SMILES, IC50
records = [
    ("COc1cc2ncnc(Oc3ccc(CC(=O)Nc4cn[nH]c4)cc3)c2cc1OC", "> 800 nM"),
    ("COc1cccc(NC(=O)Cn2cc(Oc3ccnc4cc(OC)c(C#N)cc34)cn2)c1", "40 nM"),
    ("CCn1cc(NC(=O)Cc2cc(Oc3ccnc4cc(OC)c(OC)cc34)n[nH]2)cn1", "> 1000 nM"),
]

State its IC50 on Receptor-type tyrosine-protein kinase FLT3 (Homo sapiens, UniProt P36888): `COc1cccc(CNC(=O)c2ccc(Oc3ncnc4cc(OC)c(OC)cc34)cc2)c1`
> 400 nM

* * *

# ASSAY: Clearance in dog at 2 mg/kg
# Assay type: ADME, organism-based, Canis lupus familiaris
# Parameters: dose 2 mg/kg
# MEASUREMENT_CONDITIONS: in vivo
ENDPOINT_LABEL: clearance (mL/min/kg)
One number for each entry, in mL/min/kg.

Given the entry `COc1cc2ncnc(Oc3ccc(CC(=O)Nc4cnn(C(C)C)c4)cc3)c2cc1OC` , report its measured clearance.
3.3

* * *

IC50 tested on Macrophage colony-stimulating factor 1 receptor (Homo sapiens, UniProt P07333): recorded values
Sequence (P07333 whole entry): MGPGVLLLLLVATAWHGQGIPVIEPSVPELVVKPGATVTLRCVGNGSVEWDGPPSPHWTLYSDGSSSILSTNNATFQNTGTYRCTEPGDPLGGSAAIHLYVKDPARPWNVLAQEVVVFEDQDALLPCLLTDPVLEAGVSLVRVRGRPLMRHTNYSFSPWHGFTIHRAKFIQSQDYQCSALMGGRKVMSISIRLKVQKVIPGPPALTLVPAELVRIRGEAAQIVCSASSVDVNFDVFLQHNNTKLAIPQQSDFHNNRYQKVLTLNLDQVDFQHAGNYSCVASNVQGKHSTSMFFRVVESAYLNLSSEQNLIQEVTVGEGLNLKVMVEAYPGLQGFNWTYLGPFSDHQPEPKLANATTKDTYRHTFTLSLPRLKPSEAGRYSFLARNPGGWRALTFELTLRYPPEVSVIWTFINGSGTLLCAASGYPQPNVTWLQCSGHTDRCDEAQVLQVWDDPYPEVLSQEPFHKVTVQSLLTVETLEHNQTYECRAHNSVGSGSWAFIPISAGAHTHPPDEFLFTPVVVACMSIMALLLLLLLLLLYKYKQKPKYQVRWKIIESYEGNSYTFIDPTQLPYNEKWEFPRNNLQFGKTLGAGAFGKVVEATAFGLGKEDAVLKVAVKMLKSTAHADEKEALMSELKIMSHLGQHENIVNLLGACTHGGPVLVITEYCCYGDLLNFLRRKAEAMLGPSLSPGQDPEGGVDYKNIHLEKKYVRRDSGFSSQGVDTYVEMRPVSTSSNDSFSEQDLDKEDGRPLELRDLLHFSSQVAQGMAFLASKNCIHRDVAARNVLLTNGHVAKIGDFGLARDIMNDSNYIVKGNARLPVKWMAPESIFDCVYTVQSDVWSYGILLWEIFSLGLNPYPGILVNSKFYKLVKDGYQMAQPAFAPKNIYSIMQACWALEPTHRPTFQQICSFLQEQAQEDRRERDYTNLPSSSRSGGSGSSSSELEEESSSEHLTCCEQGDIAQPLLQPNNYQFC

# count of solved cases: 5
# STRUCTURE_AS_SMILES, SYSTEM_UNDER_TEST, ENDPOINT_LABEL, RECORDED_RESULT
data = [
    ("COc1cccc(NC(=O)Cn2cc(Oc3ncnc4cc(OC)cc(OC)c34)cn2)c1", "Macrophage colony-stimulating factor 1 receptor (Homo sapiens, UniProt P07333)", "IC50", "100 nM"),
    ("COCCOc1cc2ncnc(Oc3cnn(CC(=O)Nc4cccc(OC)c4)c3)c2cc1OC", "Macrophage colony-stimulating factor 1 receptor (Homo sapiens, UniProt P07333)", "IC50", "8 nM"),
    ("CCn1cc(NC(=O)Cn2cc(Oc3ncnc4cc(OC)c(OC)cc34)cn2)cn1", "Macrophage colony-stimulating factor 1 receptor (Homo sapiens, UniProt P07333)", "IC50", "200 nM"),
    ("COc1cccc(CNC(=O)c2ccc(Oc3ncnc4cc(OC)c(OC)cc34)cc2)c1", "Macrophage colony-stimulating factor 1 receptor (Homo sapiens, UniProt P07333)", "IC50", "> 1000 nM"),
    ("COc1cccc(CC(=O)Nc2ccc(Oc3ncnc4cc(OC)c(OC)cc34)cc2)c1", "Macrophage colony-stimulating factor 1 receptor (Homo sapiens, UniProt P07333)", "IC50", "30 nM"),
]

Shift focus to the following entry.
Field request: IC50 | item: `COc1cccc(NC(=O)Cn2cc(Oc3ncnc4cc(OCCN5CCCC5)c(OC)cc34)cn2)c1`
30 nM

Hello, the source for this data is ChEMBL document CHEMBL1938371, in case you need it.
